Protein target, amino acids: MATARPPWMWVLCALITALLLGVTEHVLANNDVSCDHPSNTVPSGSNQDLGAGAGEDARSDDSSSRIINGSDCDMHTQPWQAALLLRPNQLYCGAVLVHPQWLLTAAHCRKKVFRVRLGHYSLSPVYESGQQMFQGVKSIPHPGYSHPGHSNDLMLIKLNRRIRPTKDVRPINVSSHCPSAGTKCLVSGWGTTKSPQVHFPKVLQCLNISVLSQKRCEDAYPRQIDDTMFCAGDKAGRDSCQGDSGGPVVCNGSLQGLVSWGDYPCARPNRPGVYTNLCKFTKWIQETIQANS
Literature survey of pIC50 (system: the protein given by its sequence).
Note: pIC50 values are expressed as the negative base-10 logarithm of concentration in M.

compound	target-or-system	quantitative-result
CCCC(C)/C(O)=C1/C(=O)[C@H](Cc2ccccc2)N(C(=O)OC(C)(C)C)C1=O (stereo not given in full)	the protein given by its sequence	5.10
COC(=O)[C@@H]1CCCN1C(=O)C[C@H](O)[C@H](Cc1ccccc1)NC(=O)OC(C)(C)C	the protein given by its sequence	6.91
COc1cc(/C=C(/C#N)C(=O)Nc2ccc(O)cc2)ccc1O	the protein given by its sequence	3.88
CCCCCCCCCCCCC/C(O)=C1/C(=O)[C@H](Cc2ccccc2)N(C(=O)OC(C)(C)C)C1=O	the protein given by its sequence	5.31

Shifting focus to the compound that follows.
Could you please provide reported pIC50 for `CCCCCCCC/C=C\CCCCCCC/C(O)=C1/C(=O)[C@H](Cc2ccccc2)N(C(=O)OC(C)(C)C)C1=O` ? Thanks!
5.74
